- System Tested: human GLP-1 receptor (human, UniProt P43220 24-463)
- Measurement Protocol: cell-based or functional assay
Rule for this label: label 1 means hGLP1R GTPgS Rel EC50 is less than 0.5 nM; label 0 means hGLP1R GTPgS Rel EC50 is at least 0.5 nM.

The examples below pair each entry with its known result.
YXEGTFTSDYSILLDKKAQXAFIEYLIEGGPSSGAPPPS (Aib2, K17 conjugated to (2-[2-(2-Amino-ethoxy)-ethoxy]-acetyl)2-(γ-Glu)-CO-(CH2)16-CO2H, Aib20, C-terminal amide (NH2)) [Example 315]    label 0
YXEGTFTSDYSIXLDEKAQXAFIXYLIAGGPSSGAPPPS (not fully specified; Aib2, αMeL13, K17 conjugated to (2-[2-(2-Amino-ethoxy)-ethoxy]-acetyl)2-(γ-Glu)-CO-(CH2)18-CO2H, Aib20, D-Glu24, C-terminal amide (NH2)) [Example 343]    label 0

Please state whether hGLP1R GTPgS Rel EC50 is below 0.5 nM for XXEGTFTSDYSIXLDXKAQXEFIEXLIEGGPSSGAPPPS (D-Tyr1, Aib2, αMeL13, Orn16, K17 conjugated to (2-[2-(2-Amino-ethoxy)-ethoxy]-acetyl)2-(γ-Glu)-CO-(CH2)18-CO2H, Aib20, αMeY25, C-terminal amide (NH2)) [Example 380]
label 1

Please state whether hGLP1R GTPgS Rel EC50 is below 0.5 nM for XXEGTFTSDYSIXLDXKAQXEFIEXLIAGGPSSGAPPPS (D-Tyr1, Aib2, αMeL13, Orn16, K17 conjugated to (2-[2-(2-Amino-ethoxy)-ethoxy]-acetyl)2-(γ-Glu)-CO-(CH2)18-CO2H, Aib20, αMeY25, C-terminal amide (NH2)) [Example 293]
label 1
